For each record, write down the corresponding ED50.
Organism: Cavia porcellus
Test: Oral antiallergy activity in the guinea pig anaphylaxis (GPA) model, at a pretreatment time of 24 h
Format: functional
Settings: read-out: PD50
Your answer should be a number followed by the unit of measure.

Fill in: ED50 of `COc1cc(C(C)=O)ccc1OCCCN1CCC(C(O)(c2ccccc2)c2ccccc2)CC1` is ___
1.4 mg/kg

For the compound shown here, `CCOC(=O)c1ccc(OCCCN2CCC(C(O)(c3ccc(F)cc3)c3ccc(F)cc3)CC2)cc1.Cl` , give the reported ED50.
0.37 mg/kg

Returns the measured ED50 for the input compound. Input: `COC(=O)c1ccc(OCCCN2CCC(C(O)(c3ccc(F)cc3)c3ccc(F)cc3)CC2)cc1`
2.04 mg/kg

Can you look up the measured ED50 of `COc1cc(C(C)=O)ccc1OCCCN1CCC(C(O)(c2ccc(F)cc2)c2ccc(F)cc2)CC1` for me?
0.78 mg/kg

====

Organism: Cavia porcellus
Experiment: Oral antiallergy activity in the guinea pig anaphylaxis (GPA) model, at a pretreatment time of 1 h
Assay type: functional
Conditions: read-out: PD50
measured-endpoint: ED50 (mg/kg)
Quick note: give the figure in mg/kg, leave out the unit.

Requested read-out: ED50. Entry: `COC(=O)c1ccc(OCCCN2CCC(C(O)(c3ccc(F)cc3)c3ccc(F)cc3)CC2)cc1`
0.72

GET /values?readout=ED50&item= CC(C)(C)c1ccc(C(O)CCCN2CCC(C(O)(c3ccccc3)c3ccccc3)CC2)cc1 (stereo not given)
1

// ED50 lookup, key: `COc1cc(C(C)=O)ccc1OCCCN1CCC(C(O)(c2ccc(F)cc2)c2ccc(F)cc2)CC1`
1.78

# ED50 lookup, item `CCOC(=O)c1ccc(OCCCN2CCC(C(O)(c3ccc(F)cc3)c3ccc(F)cc3)CC2)cc1.Cl`
1

Please report the recorded ED50 for `COc1cc(C(C)=O)ccc1OCCCN1CCC(C(O)(c2ccccc2)c2ccccc2)CC1` .
0.57

====

Tested on: Rattus norvegicus
Test: Oral antiallergy activity in the passive foot anaphylaxis (PFA) model of rat, at a dose of 1.0 (mg/kg); Activity between positive and negative control groups
Type: functional, organism-based
measured-endpoint: PFA

Fill in the blank: the reported PFA of `CCOC(=O)c1ccc(OCCCN2CCC(C(O)(c3ccc(F)cc3)c3ccc(F)cc3)CC2)cc1.Cl` is ____.
Weak activity

Look up PFA: `COC(=O)c1ccc(OCCCN2CCC(C(O)(c3ccc(F)cc3)c3ccc(F)cc3)CC2)cc1`
Weak activity

====

Target: Histamine H1 receptor (Cavia porcellus, UniProt P31389)
Sequence (P31389 whole entry): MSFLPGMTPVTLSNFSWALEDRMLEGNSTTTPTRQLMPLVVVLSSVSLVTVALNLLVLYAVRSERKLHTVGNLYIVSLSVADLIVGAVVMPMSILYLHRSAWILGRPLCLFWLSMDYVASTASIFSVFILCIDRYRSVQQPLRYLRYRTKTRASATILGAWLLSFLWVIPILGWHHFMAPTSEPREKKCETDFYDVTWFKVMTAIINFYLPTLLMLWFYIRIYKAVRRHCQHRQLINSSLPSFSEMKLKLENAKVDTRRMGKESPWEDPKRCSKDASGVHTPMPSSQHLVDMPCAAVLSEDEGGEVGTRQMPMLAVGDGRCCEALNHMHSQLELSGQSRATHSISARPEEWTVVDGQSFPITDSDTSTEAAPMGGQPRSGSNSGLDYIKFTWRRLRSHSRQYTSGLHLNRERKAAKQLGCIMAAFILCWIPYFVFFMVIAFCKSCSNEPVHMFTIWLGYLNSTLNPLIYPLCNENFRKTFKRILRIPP
Assay: Inhibitory activity against Tritiated [3H]- mepyramine binding to histamine H1 receptor in guinea pig cerebral cortex
Assay type: tissue-based
Would you mind telling me the reported pIC50 of each entry?
Entry type: numeric. Quantity: pIC50, the -log10 of concentration in molar units.

Entry `COC(=O)c1ccc(OCCCN2CCC(C(O)(c3ccc(F)cc3)c3ccc(F)cc3)CC2)cc1` , system Histamine H1 receptor (Cavia porcellus, UniProt P31389): what pIC50 was measured?
7.20

Item: `COc1cc(C(C)=O)ccc1OCCCN1CCC(C(O)(c2ccc(F)cc2)c2ccc(F)cc2)CC1` Test system: Histamine H1 receptor (Cavia porcellus, UniProt P31389) Read-out: pIC50 Value: ?
8.10

Lab note: need pIC50 with Histamine H1 receptor (Cavia porcellus, UniProt P31389) for entry `COc1cc(C(C)=O)ccc1OCCCN1CCC(C(O)(c2ccccc2)c2ccccc2)CC1` , please look it up.
7.38

Provide value of pIC50 for this record tested with Histamine H1 receptor (Cavia porcellus, UniProt P31389): `CCOC(=O)c1ccc(OCCCN2CCC(C(O)(c3ccc(F)cc3)c3ccc(F)cc3)CC2)cc1.Cl`
6.02
